# test.system: T1, human B7-1 N82E on cells (Homo sapiens, UniProt P33681 35-280)
# T1 construct: C-terminally fused to mCherry; also called ASN82 GLU
# T1 chain: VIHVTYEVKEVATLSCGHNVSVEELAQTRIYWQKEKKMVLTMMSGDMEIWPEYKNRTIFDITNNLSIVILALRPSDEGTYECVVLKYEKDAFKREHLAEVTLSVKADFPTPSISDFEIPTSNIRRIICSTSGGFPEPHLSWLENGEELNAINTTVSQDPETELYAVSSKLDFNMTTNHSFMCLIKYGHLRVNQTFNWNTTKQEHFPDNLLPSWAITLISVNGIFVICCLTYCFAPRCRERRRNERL
# assay.procedure: cell-cell binding, flow cytometry; percent of the wild-type pair
percent binding: recorded values
Please state the figure in %; there is no need to write the unit.

binder | percent binding [%]
human p75NTR L165H on cells (receptor, Fluorescent-tagged point mutant; also called LEU165H*) KEACPTGLYTHSGECCKACNLGEGVAQPCGANQTVCEPCLDSVTFSDVVSATEPCKPCTECVGLQSMSAPCVEADDAVCRCAYGYYQDETTGRCEACRVCEAGSGLVFSCQDKQNTVCEECPDGTYSDEANHVDPCHPCTVCEDTERQLRECTRWADAECEEIPGRWITRSTPPEGSDSTAPSTQEPEAPPEQDLIASTVAGVVTTVMGSSQPVVTRGTTDNLIPVYCSILAAVVVGLVAYIAFKRWNSCKQNKQGANSRPVNQTPPPEGEKLHSDSGISVDSQSLHDQQPHTQTASGQALKGDGGLYSSLPPAKREEVEKLLNGSAGDTWRHLAGELGYQPEHIDSFTHEACPVRALLASWATQDSATLDALLAALRRIQRADLVESLCSESTATSPV | 15

Turning to the following binder.
// recorded percent binding for human p75NTR L165K on cells (receptor, Fluorescent-tagged point mutant; also called LEU165K*) KEACPTGLYTHSGECCKACNLGEGVAQPCGANQTVCEPCLDSVTFSDVVSATEPCKPCTECVGLQSMSAPCVEADDAVCRCAYGYYQDETTGRCEACRVCEAGSGLVFSCQDKQNTVCEECPDGTYSDEANHVDPCKPCTVCEDTERQLRECTRWADAECEEIPGRWITRSTPPEGSDSTAPSTQEPEAPPEQDLIASTVAGVVTTVMGSSQPVVTRGTTDNLIPVYCSILAAVVVGLVAYIAFKRWNSCKQNKQGANSRPVNQTPPPEGEKLHSDSGISVDSQSLHDQQPHTQTASGQALKGDGGLYSSLPPAKREEVEKLLNGSAGDTWRHLAGELGYQPEHIDSFTHEACPVRALLASWATQDSATLDALLAALRRIQRADLVESLCSESTATSPV : 11
